Source of measurements: patent US20190041402A1

# target under test: T1, extracellular domain (ECD) of human αKlotho, amino acids E34-S981 with C-terminal 6-His tag (R&D Systems … (human, UniProt Q9UEF7 34-981))
# T1 construct: range 34-981; also called αKlotho (aa34-981); target antigen
# T1 sequence: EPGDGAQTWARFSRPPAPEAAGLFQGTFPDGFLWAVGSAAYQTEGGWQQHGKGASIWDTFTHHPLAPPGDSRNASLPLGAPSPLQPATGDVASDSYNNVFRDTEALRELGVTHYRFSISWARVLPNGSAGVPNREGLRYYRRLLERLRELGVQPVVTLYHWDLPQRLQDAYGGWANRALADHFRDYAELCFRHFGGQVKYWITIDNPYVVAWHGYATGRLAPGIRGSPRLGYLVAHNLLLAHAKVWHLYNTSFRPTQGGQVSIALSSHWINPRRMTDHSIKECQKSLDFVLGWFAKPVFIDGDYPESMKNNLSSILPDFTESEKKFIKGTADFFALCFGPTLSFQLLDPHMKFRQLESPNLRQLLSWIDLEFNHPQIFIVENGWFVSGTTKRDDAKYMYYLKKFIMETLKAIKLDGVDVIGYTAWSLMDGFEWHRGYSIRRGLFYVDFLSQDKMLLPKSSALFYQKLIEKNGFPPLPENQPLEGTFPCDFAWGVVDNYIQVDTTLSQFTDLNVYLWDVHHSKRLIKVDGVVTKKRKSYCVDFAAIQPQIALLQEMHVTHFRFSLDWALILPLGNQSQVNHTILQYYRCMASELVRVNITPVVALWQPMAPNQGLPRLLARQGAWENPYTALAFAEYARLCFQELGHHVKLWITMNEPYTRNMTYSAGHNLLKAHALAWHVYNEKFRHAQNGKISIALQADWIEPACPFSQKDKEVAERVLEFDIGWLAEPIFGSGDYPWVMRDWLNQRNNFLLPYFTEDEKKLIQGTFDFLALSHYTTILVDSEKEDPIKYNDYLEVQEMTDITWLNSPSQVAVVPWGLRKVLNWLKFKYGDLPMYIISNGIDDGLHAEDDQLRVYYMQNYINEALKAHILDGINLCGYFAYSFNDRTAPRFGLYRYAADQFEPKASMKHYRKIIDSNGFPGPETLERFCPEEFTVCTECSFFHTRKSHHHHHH
# experiment description: SPR, Fab captured by anti-H+L IgG, αKlotho injected at 50 to 6.25 ug/ml, Langmuir fit
# Procedure: Affinity estimates for each of the antibodies were determined by surface plasmon resonance (SPR). Fabs were immobilized using an anti-H+L antibody and serial dilutions of αKlotho were injected.
// kon lookup, one value per entry
metric name: kon (M⁻¹ s⁻¹)

{"columns": ["binder", "numeric readout"],
 "data": [
  ["anti-αKlotho Fab clone 4805 (Fab, V domains shown, Fab (also as Fab-phage); FLAG tag on light chain; also called sb174) VH: EVQLVESGGGLVQPGGSLRLSCAASGFNLSYYSMHWVRQAPGKGLEWVASISSYYGSTYYADSVKGRFTISADTSKNTAYLQMNSLRAEDTAVYYCARGGGYYSGPYAGFDYWGQGTLVTVSS VL: DIQMTQSPSSLSASVGDRVTITCRASQSVSSAVAWYQQKPGKAPKLLIYSASSLYSGVPSRFSGSRSGTDFTLTISSLQPEDFATYYCQQSSGWYHFLFTFGQGTKVEIKR", "1.57e+06"],
  ["sb106 Fab (Fab, V domains shown, also called Fsb106; clone 48) VH: EVQLVESGGGLVQPGGSLRLSCAASGFNISYYSIHWVRQAPGKGLEWVAYISPSYGYTSYADSVKGRFTISADTSKNTAYLQMNSLRAEDTAVYYCARYYVYASHGWAGYGMDYWGQGTLVTVSS VL: DIQMTQSPSSLSASVGDRVTITCRASQSVSSAVAWYQQKPGKAPKLLIYSASSLYSGVPSRFSGSRSGTDFTLTISSLQPEDFATYYCQQAGYSPITFGQGTKVEIKR", 360000],
  ["anti-αKlotho Fab clone 4807 (Fab, V domains shown, Fab (also as Fab-phage); FLAG tag on light chain; also called sb176) VH: EVQLVESGGGLVQPGGSLRLSCAASGFNLSSSYMHWVRQAPGKGLEWVASIYPSYGSTSYADSVKGRFTISADTSKNTAYLQMNSLRAEDTAVYYCARGVVPSYYYWFWPYGAIDYWGQGTLVTVSS VL: DIQMTQSPSSLSASVGDRVTITCRASQSVSSAVAWYQQKPGKAPKLLIYSASSLYSGVPSRFSGSRSGTDFTLTISSLQPEDFATYYCQQSSYSLITFGQGTKVEIKR", 698000],
  ["anti-αKlotho Fab clone 4804 (Fab, V domains shown, Fab (also as Fab-phage); FLAG tag on light chain C-terminus; also called sb173) VH: EVQLVESGGGLVQPGGSLRLSCAASGFNLYSYSIHWVRQAPGKGLEWVAYISSSSGSTYYADSVKGRFTISADTSKNTAYLQMNSLRAEDTAVYYCARGWGGGYWFYPVYGIDYWGQGTLVTVSS VL: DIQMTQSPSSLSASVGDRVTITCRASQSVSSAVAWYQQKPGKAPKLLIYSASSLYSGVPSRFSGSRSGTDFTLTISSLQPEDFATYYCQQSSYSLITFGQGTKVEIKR", "1.43e+06"]
]}
